Assay: Phase 1 open-label study: plasma PK of single inhaled nezulcitinib doses under supplemental oxygenation scenarios
Format: in vivo, human
Conditions: human, plasma, inhaled, 3 mg, Administration B: single 3 mg, oral inhalation, low-flow nasal cannula oxygen 6 L/min; plasma; arithmetic mean
READOUT_NAME: AUC(0-inf) (ng·h/mL)
Give your result in ng·h/mL as a bare value.

What value of AUC(0-inf) has been reported for the following molecule? CCc1cc(O)ccc1-c1ccc2c(-c3nc4c([nH]3)CN(C(C)C)[C@H](C(=O)N3CC(N(C)C)C3)C4)n[nH]c2c1
54

* * *

Experiment: Phase 1 open-label study: plasma PK of single inhaled nezulcitinib doses under supplemental oxygenation scenarios
Type: in vivo, human
Conditions: human, plasma, inhaled, 9 mg, Administration D2: single 9 mg, oral inhalation, high-flow nasal cannula oxygen 50 L/min; plasma; arithmetic mean
READOUT_NAME: Cmax (ng/mL)
Your answer should be a plain number; it is taken to be in ng/mL.

Sample CCc1cc(O)ccc1-c1ccc2c(-c3nc4c([nH]3)CN(C(C)C)[C@H](C(=O)N3CC(N(C)C)C3)C4)n[nH]c2c1 [Compound 1] — what was its Cmax?
43.7
